Hello, the source for this data is paper PMC3590988, in case you need it.

target: T1, ScWpl1^259–647 (Wapl domain of Saccharomyces cerevisiae Wpl1), wild type (S. cerevisiae, UniProt Q99359 259-647)
T1 sequence (looked up): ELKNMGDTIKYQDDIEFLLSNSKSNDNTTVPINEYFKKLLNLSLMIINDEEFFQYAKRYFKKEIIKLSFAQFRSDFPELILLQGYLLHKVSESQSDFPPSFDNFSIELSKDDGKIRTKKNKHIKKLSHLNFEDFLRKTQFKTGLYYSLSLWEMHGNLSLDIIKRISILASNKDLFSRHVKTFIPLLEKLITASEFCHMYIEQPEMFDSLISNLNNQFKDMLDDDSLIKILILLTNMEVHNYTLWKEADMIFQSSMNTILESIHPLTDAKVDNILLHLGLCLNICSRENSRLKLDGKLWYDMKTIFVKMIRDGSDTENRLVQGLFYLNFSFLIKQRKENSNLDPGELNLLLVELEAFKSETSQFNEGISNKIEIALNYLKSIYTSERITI
assay.protocol: BLI
pKd: −log10 of the molar value.
readout.name: pKd

binder: GST-tagged ScSmc3 ATPase head (ScSmc3^AH), wild type (domain or fragment, S. cerevisiae) MYIKRVIIKGFKTYRNETIIDNFSPHQNVIIGSNGSGKSNFFAAIRFVLSDDYSNLKREERQGLIHQGSGGSVMSASVEIVFHDPDHSMILPSGVLSRGDDEVTIRRTVGLKKDDYQLNDRNVTKGDIVRMLETAGFSMNNPYNIVPQGKIVALTNAKDKERLQLLEDVVGAKSFEVKLKASLKKMEETESGGSGGKVSENFEAVFERLVPRGTAKLIIHRKNDNANDHDESIDVDMDAESNESQNGKDSEIMYTGVSISVSFNSKQNEQLHVEQLSGGQKTVCAIALILAIQMVDPASFYLFDEIDAALDKQYRTAVATLLKELSKNAQFICTTFRTDMLQVADKFFRVKYENKISTVIEVNREEAIGFIRGSNKFAEV
readout.name: pKd
observed.result: 7.33
